Every entry's value here was drawn from the supplement of paper PMC10878532.

system: human spermatozoa; experiment: acrosome-reacted (PNA+) sperm after agonist cocktail, percent change vs DMSO (capacitating); higher = more of the measured sperm population than DMSO, for viability, fewer PI-positive (dead) cells than DMSO; details: incubation time: 3h; 29.9 µM; capacitating + agonist cocktail 1h
Binary classification by acrosome-reacted, with -10% as an inclusive lower bound for condition met; all other cases are condition not met.

Is the recorded value of acrosome-reacted equal to or greater than -10% for this compound? O=C(c1cccs1)c1no[n+]([O-])c1C(=O)c1cccs1
condition not met

Would you say O=C(O)c1ccc(/C=C2/SC(=S)N(c3cccc(C(F)(F)F)c3)C2=O)cc1 shows acrosome-reacted at minimum -10%?
condition met

Confirm if acrosome-reacted reported for the compound Oc1c(Cl)cc(Cl)c(Cl)c1Cc1c(O)c(Cl)cc(Cl)c1Cl is -10% or above.
condition not met

Does the compound CNC(=O)c1ccccc1Nc1nc(Nc2ccc(N3CCOCC3)cc2OC)ncc1Cl have recorded acrosome-reacted that is -10% or more?
condition met

Check the entry CCCCCCCCCCCCCCCCOCC(COCC(F)(F)F)OP(=O)([O-])OC (stereo not given) : does acrosome-reacted equal or exceed -10%?
condition met

* * *

tested on: HepG2; experiment: HepG2 toxicity (resazurin), effect normalised to DMSO (DMSO = 0); higher = more features changed / larger toxic effect; settings: incubation time: 70h incubation; 30 µM
readoutLabel: HepG2 toxicity (%)
A number alone suffices; assume %.

Record CC(C)Cn1c(=O)n(C)c(=O)c2[nH]cnc21 [IBMX] , field HepG2 toxicity: -0.365

The value of HepG2 toxicity measured for the compound O=c1sn(-c2cccc3ccccc23)c(=O)n1Cc1ccccc1 [Tideglusib] turned out to be 4.74

Briefly, HepG2 toxicity measured for CCOC(=O)CSc1nc(=O)c(NCC(=O)OC)n[nH]1 [Compound B4] : 5.66

Form field HepG2 toxicity, entry Cc1ccc(S(=O)(=O)c2ccc([N+](=O)[O-])o2)cc1 : 103

CCc1cc(Nc2nccc(-c3c(-c4ccc(OC)c(C(=O)Nc5c(F)cccc5F)c4)nc4ccccn34)n2)c(OC)cc1N1CCC(N2CCN(S(C)(=O)=O)CC2)CC1 has a reported HepG2 toxicity of -1.34

* * *

I'd appreciate it if you could supply change in acrosome-reacted values for the items below.
system: human spermatozoa; experiment: change in acrosome-reacted (PNA+) sperm vs DMSO, no agonist (capacitating); higher = more of the measured sperm population than DMSO, for viability, fewer PI-positive (dead) cells than DMSO; settings: incubation time: 3h, 9.99 µM
Counter-ions that a name gives are not always drawn.
Write the number in % without appending the unit.

What the record says about C=CC[C@@H]1/C=C(\C)C[C@H](C)C[C@H](OC)[C@H]2O[C@@](O)(C(=O)C(=O)N3CCCC[C@H]3C(=O)O[C@H](/C(C)=C/[C@@H]3CC[C@@H](O)[C@H](OC)C3)[C@H](C)[C@@H](O)CC1=O)[C@H](C)C[C@@H]2OC : change in acrosome-reacted is 0.533

Quick note, change in acrosome-reacted for CC(C)(C)c1ccc(S(=O)(=O)Nc2cnc3[nH]c(C(=O)N[C@H]4CCC[C@H]4O)c(-c4ccccc4)c3c2)cc1 landed at 0.406

For this compound ( NC(=O)Nc1cc(-c2cccc(F)c2)sc1C(=O)N[C@H]1CCCNC1 [AZD 7762 hydrochloride] ), measured change in acrosome-reacted is 0.07

Entry COc1cc(SC)ccc1C(=O)N1CCC(Cc2ccccc2)CC1 ; change in acrosome-reacted = 0.294

The reported change in acrosome-reacted of the compound CCCCN1C[C@@H](O)[C@H](O)[C@H](O)[C@@H]1CO was -0.0821

The measured change in acrosome-reacted associated with CNC(=O)c1ccccc1Nc1nc(Nc2ccc(N3CCOCC3)cc2OC)ncc1Cl reads 1.37

Quick note, change in acrosome-reacted for N=C(N)Nc1nc(-c2ccc(Cl)cc2)cs1 [n-[4-(4-Chlorophenyl)-1,3-thiazol-2-yl]guanidine] landed at 1.42

c1cnc2c(c1)ccc1cccnc12 yielded change in acrosome-reacted of 0.27

Input CC(C)[C@H]1c2ccc(F)cc2CC[C@@]1(CCN(C)CCCc1nc2ccccc2[nH]1)OC(=O)C1CC1 [NNC 55-0396 dihydrochloride] . Output change in acrosome-reacted: 4.14

change in acrosome-reacted measured on COc1cc(C(=O)N2CCC(N3CCN(C)CC3)CC2)ccc1Nc1ncc2c(n1)N(C)c1ccccc1C(=O)N2C = 1.4

So for COc1ccc(CCCN2CCC(COC(c3ccccc3)c3ccccc3)CC2)cc1 , the logged change in acrosome-reacted turned out to be 1.43

Sure, the documented change in acrosome-reacted for O=C(Nc1ccc([N+](=O)[O-])cc1Cl)c1cc(Cl)ccc1O [Niclosamide] is 1.03

Entry under test: COC(=O)c1c(C)[nH]c(C)c1C(=O)c1ccccc1Cc1ccccc1 . Its change in acrosome-reacted was 0.874

Reported change in acrosome-reacted ( CCCCC(CC)C/N=C(\N)N/C(N)=N/CCCCCC/N=C(\N)N/C(N)=N/CC(CC)CCCC (stereo unspecified) [Alexidine dihydrochloride] ) = 65.4

change in acrosome-reacted recorded for this compound, Cc1ccc(S(=O)(=O)c2c(N)n(CC(O)c3ccc([N+](=O)[O-])cc3)c3nc4ccccc4nc23)cc1 (stereo unspecified) , is 0.985

Record summary for O=C(O)c1cccnc1Nc1cccc(C(F)(F)F)c1 : reported change in acrosome-reacted = 0.714

* * *

system: HeLa; experiment: HeLa toxicity: nuclei-count effect normalised to DMSO (DMSO = 0); higher = more features changed / larger toxic effect; conditions: incubation time: 24h incubation; 9.99 µM
Structures can show the parent of a compound that is named as a salt.
readoutLabel: HeLa toxicity: nuclei-count effect normalised (%)
Please reply with the bare figure in % and do not write the unit itself.

The compound listed as Clc1ccc(C(OCCN2CCCCC2)c2ccccc2)cc1 (stereo not given) [Cloperastine hydrochloride] shows HeLa toxicity: nuclei-count effect normalised equal to 6.68

// HeLa toxicity: nuclei-count effect normalised value for CCOC(=O)CSc1nc(=O)c(NCC(=O)OC)n[nH]1 : -3.67

// HeLa toxicity: nuclei-count effect normalised value for c1cnc2c(c1)ccc1cccnc12 : 46

The compound identified as CN(C)CCCn1cc(C2=C(c3c[nH]c4ccccc34)C(=O)NC2=O)c2ccccc21 registered its HeLa toxicity: nuclei-count effect normalised at -5.34

HeLa toxicity: nuclei-count effect normalised reported for this compound Oc1c(Cl)cc(Cl)c(Cl)c1Cc1c(O)c(Cl)cc(Cl)c1Cl : 14

The compound listed as N=C(N)Nc1nc(-c2ccc(Cl)cc2)cs1 [n-[4-(4-Chlorophenyl)-1,3-thiazol-2-yl]guanidine] has a reported HeLa toxicity: nuclei-count effect normalised of 9.82

The reported HeLa toxicity: nuclei-count effect normalised of the compound CCN(CC)C(=S)SSC(=S)N(CC)CC was 16.7

Entry COc1cc(SC)ccc1C(=O)N1CCC(Cc2ccccc2)CC1 — recorded HeLa toxicity: nuclei-count effect normalised = 4.01

So, O=c1sn(-c2cccc3ccccc23)c(=O)n1Cc1ccccc1 ? Its HeLa toxicity: nuclei-count effect normalised was -2.47

Lab book: HeLa toxicity: nuclei-count effect normalised of COc1cc2ncn(-c3cc(OCc4ccccc4C(F)(F)F)c(C(N)=O)s3)c2cc1OC noted as 78.2

* * *

system: human spermatozoa; assay: progressively motile sperm, percent change vs DMSO (non-capacitating); higher = more of the measured sperm population than DMSO, for viability, fewer PI-positive (dead) cells than DMSO; extreme values may be limits of the assay; settings: incubation time: 10min incubation, 9.99 µM
Structures can show the parent of a compound that is named as a salt.
readoutLabel: progressively motile sperm (%)
Your answer is read as %, so omit the unit and give the number.

The reported value for [O-][S+](c1ccccc1)c1ccc2nnnn2n1 (stereo not given) in terms of progressively motile sperm is -34.9

progressively motile sperm in this record for CCOc1ccccc1OCCN[C@H](C)Cc1ccc(OC)c(S(N)(=O)=O)c1 : 3.42

Noted for [O]=[V]([O-])([O-])[O-] [Sodium orthovanadate] : its progressively motile sperm reads 7.34

// recorded progressively motile sperm for COc1cc2ncn(-c3cc(OCc4ccccc4C(F)(F)F)c(C(N)=O)s3)c2cc1OC : 16.5

Reported progressively motile sperm of CC(C)[C@H]1c2ccc(F)cc2CC[C@@]1(CCN(C)CCCc1nc2ccccc2[nH]1)OC(=O)C1CC1 [NNC 55-0396 dihydrochloride] : 5.26

Item: COc1cc(C(=O)N2CCC(N3CCN(C)CC3)CC2)ccc1Nc1ncc2c(n1)N(C)c1ccccc1C(=O)N2C | progressively motile sperm: 31.1

Record O.O.O.OO.OO.[K+].[OH-].[V].c1cnc2c(c1)ccc1cccnc12 , field progressively motile sperm: 6.92

Measured progressively motile sperm of CC(C)Cn1c(=O)n(C)c(=O)c2[nH]cnc21 : 18.9

// field: progressively motile sperm; key: CN(C)CCCn1cc(C2=C(c3c[nH]c4ccccc34)C(=O)NC2=O)c2ccccc21 ; value = 3.74

Field progressively motile sperm (entry c1cnc2c(c1)ccc1cccnc12 ) reads -0.0696

Per the record, O=C(N1CCCCC1)N1CCCCC1Cc1ccccc1 (stereo not given) has progressively motile sperm of -0.571

# progressively motile sperm (compound: Cc1sc2c(c1C)C(c1ccc(Cl)cc1)=N[C@@H](CC(=O)OC(C)(C)C)c1nnc(C)n1-2 ) is 13.6

progressively motile sperm in this record for CCOCc1nc2c(N)nc3ccccc3c2n1CC(C)(C)O : -38.4

Value of progressively motile sperm reported for the compound CC(=O)N1CCC(C(=O)N(CCCN2CCN(Cc3ccc(F)cc3)CC2)c2ccc(C)c(Cl)c2)CC1 [B07 hydrochloride] is -0.531

Reported progressively motile sperm for CCCCC/C=C\C/C=C\C/C=C\C/C=C\CCCC(=O)NCCO [Anandamide] was 0.835

The compound identified as COc1ccc(CCCN2CCC(COC(c3ccccc3)c3ccccc3)CC2)cc1 registered its progressively motile sperm at 1.8

Quick note, progressively motile sperm for CC1(C)CC=C(c2ccccc2)c2cc(/C=C/c3ccc(C(=O)O)cc3)ccc21 landed at 8.04

Note to self: progressively motile sperm recorded for COc1cc(SC)ccc1C(=O)N1CCC(Cc2ccccc2)CC1 was 2.94

For c1ccc2c(c1)SCc1c-2[nH]c2ccccc12 the compound record lists progressively motile sperm as -81.3

Looking up Oc1c(Cl)cc(Cl)cc1Sc1cc(Cl)cc(Cl)c1O , I found its progressively motile sperm recorded as 3.11

response.value for CC(C)(O)c1ccn2c(-c3ccc(F)c(-c4ccc(F)cc4C#N)c3)cnc2c1F (field: progressively motile sperm) = 41.3

Quick note, progressively motile sperm for NC(=O)c1cc(-c2ccc(S(=O)(=O)[C@H]3CC[C@H](Nc4ccc(C(F)(F)F)cn4)CC3)cc2)ccn1 landed at 20.1

Record COc1cc(C)c2c(Oc3cccc(C(F)(F)F)c3)c(OC)cc(NC(C)CCCN)c2n1 (stereo not given) , field progressively motile sperm: -20.8

// recorded progressively motile sperm for Cc1cc2c(C(C)C)c(O)c(O)c(C=O)c2c(O)c1-c1c(C)cc2c(C(C)C)c(O)c(O)c(C=O)c2c1O : -3.27

Per the records, this compound ( O=C(O)c1ccc(/C=C2/SC(=S)N(c3cccc(C(F)(F)F)c3)C2=O)cc1 ) has progressively motile sperm equal to 3.85
